Molecular target: UniProt Q12884
Sequence (Q12884 whole entry): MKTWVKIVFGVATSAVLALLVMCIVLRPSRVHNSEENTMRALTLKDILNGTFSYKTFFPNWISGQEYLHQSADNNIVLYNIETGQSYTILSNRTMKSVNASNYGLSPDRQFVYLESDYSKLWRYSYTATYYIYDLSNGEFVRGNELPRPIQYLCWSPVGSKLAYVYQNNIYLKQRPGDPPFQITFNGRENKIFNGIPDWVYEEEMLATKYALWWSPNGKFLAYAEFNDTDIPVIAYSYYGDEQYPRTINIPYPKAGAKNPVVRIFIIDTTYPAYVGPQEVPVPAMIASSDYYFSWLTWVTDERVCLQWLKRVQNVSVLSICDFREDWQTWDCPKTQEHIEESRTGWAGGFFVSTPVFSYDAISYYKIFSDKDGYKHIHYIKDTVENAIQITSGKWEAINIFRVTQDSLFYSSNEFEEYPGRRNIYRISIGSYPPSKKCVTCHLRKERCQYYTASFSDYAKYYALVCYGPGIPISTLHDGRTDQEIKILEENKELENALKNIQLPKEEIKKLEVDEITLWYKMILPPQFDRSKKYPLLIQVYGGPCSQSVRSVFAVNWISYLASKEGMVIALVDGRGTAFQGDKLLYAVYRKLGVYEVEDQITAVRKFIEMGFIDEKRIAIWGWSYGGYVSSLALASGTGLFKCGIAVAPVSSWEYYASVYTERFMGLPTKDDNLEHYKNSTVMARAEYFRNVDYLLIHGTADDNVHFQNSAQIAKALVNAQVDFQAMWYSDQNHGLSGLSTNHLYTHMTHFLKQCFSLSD
Test: hFAP Binding Assay
Property name: koff (s⁻¹)

Q: Look at this compound and give its reported koff. "N#C[C@@H]1CSCN1C(=O)CNC(=O)c1ccnc2ccc(N3CCOc4ccccc43)cc12"
Ans: 18

Q: Name the reported koff value associated with the compound "CCC1(O)CN(c2ccc3nccc(C(=O)NCC(=O)N4CSC[C@H]4C#N)c3c2)C1"
Ans: 5.4e-05

Q: Need koff, item "N#C[C@@H]1CSCN1C(=O)CNC(=O)c1ccnc2ccc(N3CC4(CCC4)C3)cc12"
Ans: 0.00012

I. N#C[C@@H]1CSCN1C(=O)CNC(=O)c1ccnc2ccc(N3C[C@@H]4CCC[C@@H]43)cc12 (mixture of isomers)
II. N#C[C@@H]1CSCN1C(=O)CNC(=O)c1ccnc2c(Cl)cc(N3CCOCC3)cc12
III. CC1(C)CCCN1c1ccc2nccc(C(=O)NCC(=O)N3CSC[C@H]3C#N)c2c1
Q: Your job: order these 3 records by koff, ascending. Enter labels, ranked according to the request.
Ans: I, III, II
(I: 6.6e-05 s⁻¹, III: 0.00018 s⁻¹, II: 0.00095 s⁻¹)

I. N#C[C@@H]1CSCN1C(=O)CNC(=O)c1ccnc2ccc(N3CC(C4CC4)C3)cc12
II. Cc1cc(C(F)(F)F)nn1-c1ccc2nccc(C(=O)NCC(=O)N3CSC[C@H]3C#N)c2c1
III. C[C@@H]1CCN(c2ccc3nccc(C(=O)NCC(=O)N4CSC[C@H]4C#N)c3c2)C1
Q: // smallest koff at index 0, largest at the end Enter labels, ranked according to the request.
Ans: I, III, II
(I: 0.00013 s⁻¹, III: 0.00025 s⁻¹, II: 0.0012 s⁻¹)

P. N#C[C@@H]1CSCN1C(=O)CNC(=O)c1ccnc2ccc(-n3ccc4c(F)cc(F)cc43)cc12
Q. Cc1ccc(-c2ccc3nccc(C(=O)NCC(=O)N4CSC[C@H]4C#N)c3c2)cn1
Q: When the recorded koff values are compared, which is smaller: that of P or that of Q ? Identify your pick by its label.
Ans: Q

1. COC[C@H]1[C@H](C)OCCN1c1ccc2nccc(C(=O)NCC(=O)N3CSC[C@H]3C#N)c2c1
2. N#C[C@@H]1CSCN1C(=O)CNC(=O)c1ccnc2ccc(-c3ccc(F)cn3)cc12
Q: Of the two listed items, which has the higher koff? First: 1 Second: 2 Answer by quoting the chosen item's label.
Ans: 1
